# target.entity: human recombinant D2 receptor (Homo sapiens, UniProt P14416)
# Construct: expressed in transfected cells; host or cells: HEK293
# Sequence (P14416 whole entry): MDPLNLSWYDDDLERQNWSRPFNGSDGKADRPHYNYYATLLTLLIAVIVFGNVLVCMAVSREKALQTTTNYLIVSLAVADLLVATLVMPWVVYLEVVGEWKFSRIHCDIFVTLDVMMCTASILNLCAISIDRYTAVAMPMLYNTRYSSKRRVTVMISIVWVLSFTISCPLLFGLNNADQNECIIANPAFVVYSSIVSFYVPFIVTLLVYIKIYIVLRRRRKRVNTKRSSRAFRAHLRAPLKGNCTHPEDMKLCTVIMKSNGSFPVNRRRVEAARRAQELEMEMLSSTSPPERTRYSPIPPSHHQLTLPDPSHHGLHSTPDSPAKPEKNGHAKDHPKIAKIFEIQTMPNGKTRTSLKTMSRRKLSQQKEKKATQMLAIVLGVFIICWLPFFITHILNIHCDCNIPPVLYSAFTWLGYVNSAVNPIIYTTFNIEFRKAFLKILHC
# assay.protocol: D2 antagonistic activity test (LANCE cAMP, antagonism of dopamine inhibition of cAMP production in HEK293 cells)
# Assay type: cell-based
# condition.info: HEK293 cells expressing human recombinant D2 receptor; test concentration 0.1 nM to 10000 nM; read-out: D2 Antagonistic Activity (IC50, nmol/L)
pIC50: −log10 of the molar value.
observable: pIC50

Here's what some known entries look like.
compound=COc1cc2c(cc1CCO)[C@@H]1Cc3ccc(OC)c(OC)c3CN1CC2 measured_number=6.21
compound=COc1cc2c(cc1OC)[C@@H]1Cc3ccc(CO)c(OC)c3CN1CC2 measured_number=6.29
compound=COc1cc2c(cc1C(N)=O)[C@@H]1Cc3ccc(C(N)=O)c(OC)c3CN1CC2 measured_number=6.21

[P] C=CCOc1cc2c(cc1OC)CCN1Cc3c(ccc(OC)c3OC)C[C@@H]21
[Q] COc1cc2c(cc1C#N)[C@@H]1Cc3ccc(OC)c(OC)c3CN1CC2
[R] COc1ccc2c(c1OC)CN1CCc3cc4nc[nH]c4cc3C1C2 (stereo not shown)
[S] COc1cc2c(cc1O)[C@@H]1Cc3ccc(O)c(OC)c3CN1CC2 [l-SPD, L-Stepholidine, reference compound]
Q: Parameters: sort_field (pIC50), sort_dir (desc). To answer, arrange all of the labels according to the requested order.
A: S, R, P, Q
(S: 7.43, R: 6.86, P: 6.35, Q: 6.02)
